FYI, the data here is from ChEMBL document CHEMBL1201862.

tested on: HCC 2998; assay: NCI tumour cell line growth inhibition, 48 h
Calls of active or inactive are those of the source. Rule as the data show it: active = GI50 up to about 1.1 µM and inactive = higher.
Assay metric: GI50

Recorded GI50, per entry:
Compound	GI50
O=C1Nc2ccccc2Nc2nc3cccccc-3c21	> 100 µM (inactive)
O=c1[nH]n(Cc2ccccc2CCl)c2ccc([N+](=O)[O-])cc12	21.7 µM (inactive)
O=P(Nc1ccc(Cl)cc1)(Oc1ccccc1)N(CCCl)CCCl (stereo unspecified)	> 100 µM (inactive)
O=C(NC(Cc1ccc(I)cc1)C(=O)O)c1cccc(Br)c1 (stereo unspecified)	22.4 µM (inactive)
CC(=O)N1N=C(c2ccc3ccccc3c2O)CC1c1ccc(N(C)C)cc1 (stereo unspecified)	> 100 µM (inactive)
O=[N+]([O-])c1cc(-[n+]2cc([O-])on2)ccc1Cl	18.1 µM (inactive)
COc1ccc(/C=c2\sc3n(c2=O)C(N)=C(C#N)C(c2ccc(OC)cc2)C=3c2nc3ccccc3[nH]2)cc1 (stereo unspecified)	16.4 µM (inactive)
Cc1cc2c(cc1CO)N1Cc3cc(C)c(CO)cc3N(C2)C1	> 100 µM (inactive)

Q: Form field: reported GI50 of CN(C)/C=N/NC(=O)/C(C#N)=C/N(C)C
Result: > 100 µM (inactive)

Q: Form field: reported GI50 of CC1(C)N=C2C(=O)c3c([nH]c4ccccc34)[C@]3(C)CCC1CC23 (stereo partly specified)
Result: > 6.25 µM (inactive)

Q: Form field: reported GI50 of COc1cc(C2=NN(C)C(c3ccc([N+](=O)[O-])o3)C2)cc(OC)c1OC (stereo unspecified)
Result: > 100 µM (inactive)
